- Test system: blackgrass (Alopecurus myosuroides)
- assay_details: Test B pre-/postemergence plant response
- Format: in vivo
- condition_description: 31 g ai/ha, postemergence; scale 0 to 100, 0 is no effect, 100 is complete control
readout_label: Plant response rating, Blackgrass
Output spec: single numeric token, no unit.

Lookup: Any idea what Plant response rating, Blackgrass came out for CCCCc1ncc(C(=O)C2=C(O)CCCC2=O)c(=O)n1-c1ccccc1C [Compound 62] on blackgrass (Alopecurus myosuroides)?
Found: 15

Lookup: Any idea what Plant response rating, Blackgrass came out for Cc1ccc(F)c(-n2c(-c3ccccc3)ncc(C(=O)C3=C(O)CCCC3=O)c2=O)c1 [Compound 51] on blackgrass (Alopecurus myosuroides)?
Found: 0

Lookup: Any idea what Plant response rating, Blackgrass came out for O=C1CCCC(O)=C1C(=O)c1cnc(-c2ccc(Br)cc2)n(-c2ccccc2)c1=O [Compound 70] on blackgrass (Alopecurus myosuroides)?
Found: 30

Lookup: Any idea what Plant response rating, Blackgrass came out for CCn1c(-c2ccccc2)ncc(C(=O)C2=C(O)CCCC2=O)c1=O [Compound 49] on blackgrass (Alopecurus myosuroides)?
Found: 0

* * *

- Test system: winter barley (Hordeum vulgare)
- assay_details: Test B postemergence plant response
- Assay type: in vivo
- condition_description: Postemergence, 125 g ai/ha; scale 0 to 100 (0 no effect, 100 complete control)
readout_label: Plant response rating, Barley
Output spec: single numeric token, no unit.

Lookup: Which Plant response rating, Barley is listed for O=C1CCCC(O)=C1C(=O)c1cnc(-c2cccs2)n(CC2CCCO2)c1=O (stereo not drawn) [Compound 109] ?
Found: 5

Lookup: Which Plant response rating, Barley is listed for CCn1c(-c2cccc(F)c2)ncc(C(=O)C2=C(O)C3CCC(C3)C2=O)c1=O (stereo not drawn) [Compound 236] ?
Found: 0

Lookup: Which Plant response rating, Barley is listed for CCCCn1c(C2CC2)ncc(C(=O)C2=C(O)CCCC2=O)c1=O [Compound 193] ?
Found: 50

Lookup: Which Plant response rating, Barley is listed for CCn1c(-c2cc(F)cc(F)c2)ncc(C(=O)C2=C(O)CCCC2=O)c1=O [Compound 122] ?
Found: 50

Lookup: Which Plant response rating, Barley is listed for CCc1cccc(-n2c(-c3ccccc3)ncc(C(=O)C3=C(O)CCCC3=O)c2=O)c1 [Compound 220] ?
Found: 10

Lookup: Which Plant response rating, Barley is listed for O=C1CCCC(O)=C1C(=O)c1cnc(-c2ccccc2)n(C2CCCCCC2)c1=O [Compound 130] ?
Found: 0

Lookup: Which Plant response rating, Barley is listed for COCCn1c(-c2cccs2)ncc(C(=O)C2=C(O)CCCC2=O)c1=O [Compound 108] ?
Found: 0

Lookup: Which Plant response rating, Barley is listed for CCCc1ncc(C(=O)C2=C(O)CCCC2=O)c(=O)n1-c1ccccc1 [Compound 217] ?
Found: 10

Lookup: Which Plant response rating, Barley is listed for CCCn1c(-c2cc(Cl)cc(Cl)c2)ncc(C(=O)C2=C(O)CCCC2=O)c1=O [Compound 173] ?
Found: 35

* * *

- Tested on: giant foxtail (Setaria faberii)
- assay_details: Test A pre-/postemergence plant response
- Assay type: in vivo
- condition_description: Preemergence, 125 g ai/ha; 0 to 100 scale, 0 = no effect, 100 = complete control
Would you kindly list Plant response rating, Foxtail, Giant for each of these compounds?
Output spec: single numeric token, no unit.

Lookup: Any idea what Plant response rating, Foxtail, Giant came out for CCCCn1c(C2CC2)ncc(C(=O)C2=C(O)CCCC2=O)c1=O [Compound 193] on giant foxtail (Setaria faberii)?
Found: 90

Lookup: Any idea what Plant response rating, Foxtail, Giant came out for Cc1cccc(-n2c(-c3ccccc3)ncc(C(=O)C3=C(O)CCCC3=O)c2=O)c1C [Compound 27] on giant foxtail (Setaria faberii)?
Found: 30

Lookup: Any idea what Plant response rating, Foxtail, Giant came out for CCc1ccc(-n2c(-c3cccc(F)c3)ncc(C(=O)C3=C(O)CCCC3=O)c2=O)cc1 [Compound 204] on giant foxtail (Setaria faberii)?
Found: 20

Lookup: Any idea what Plant response rating, Foxtail, Giant came out for Cc1ccc(Cl)cc1-n1c(-c2ccccc2)ncc(C(=O)C2=C(O)CCCC2=O)c1=O [Compound 52] on giant foxtail (Setaria faberii)?
Found: 80

Lookup: Any idea what Plant response rating, Foxtail, Giant came out for CCCn1c(-c2cccc(F)c2)ncc(C(=O)C2=C(O)CCCC2=O)c1=O [Compound 127] on giant foxtail (Setaria faberii)?
Found: 50

Lookup: Any idea what Plant response rating, Foxtail, Giant came out for O=C1CCCC(O)=C1C(=O)c1cnc(-c2ccccc2)n(C2CCOCC2)c1=O [Compound 129] on giant foxtail (Setaria faberii)?
Found: 40

Lookup: Any idea what Plant response rating, Foxtail, Giant came out for CCCn1c(-c2cc(F)cc(F)c2)ncc(C(=O)C2=C(O)CC(C)(C)CC2=O)c1=O [Compound 224] on giant foxtail (Setaria faberii)?
Found: 20

Lookup: Any idea what Plant response rating, Foxtail, Giant came out for COc1ccccc1-n1c(-c2ccccc2)ncc(C(=O)C2=C(O)CCCC2=O)c1=O [Compound 15] on giant foxtail (Setaria faberii)?
Found: 40

Lookup: Any idea what Plant response rating, Foxtail, Giant came out for CCCn1c(-c2ccco2)ncc(C(=O)C2=C(O)C3CCC(C3)C2=O)c1=O (stereo not drawn) [Compound 230] on giant foxtail (Setaria faberii)?
Found: 40

Lookup: Any idea what Plant response rating, Foxtail, Giant came out for CCCn1c(C2CC2)ncc(C(=O)C2=C(O)CCCC2=O)c1=O [Compound 153] on giant foxtail (Setaria faberii)?
Found: 20

Lookup: Any idea what Plant response rating, Foxtail, Giant came out for CC(C)c1ncc(C(=O)C2=C(O)CCCC2=O)c(=O)n1-c1ccccc1 [Compound 60] on giant foxtail (Setaria faberii)?
Found: 60

Lookup: Any idea what Plant response rating, Foxtail, Giant came out for O=C1CCCC(O)=C1C(=O)c1cnc(-c2ccsc2)n(C2CCOCC2)c1=O [Compound 186] on giant foxtail (Setaria faberii)?
Found: 20

Lookup: Any idea what Plant response rating, Foxtail, Giant came out for Cc1cccc(-n2c(-c3cccc(Cl)c3)ncc(C(=O)C3=C(O)CCCC3=O)c2=O)c1 [Compound 45] on giant foxtail (Setaria faberii)?
Found: 0

Lookup: Any idea what Plant response rating, Foxtail, Giant came out for CCn1c(-c2ccccc2)ncc(C(=O)C2=C(O)CCCC2=O)c1=O [Compound 49] on giant foxtail (Setaria faberii)?
Found: 20

Lookup: Any idea what Plant response rating, Foxtail, Giant came out for O=C1CCCC(O)=C1C(=O)c1cnc(-c2ccc(Cl)cc2)n(-c2ccccc2)c1=O [Compound 25] on giant foxtail (Setaria faberii)?
Found: 50

Lookup: Any idea what Plant response rating, Foxtail, Giant came out for O=C1CCCC(O)=C1C(=O)c1cnc(-c2cccc(Cl)c2)n(-c2ccccc2)c1=O [Compound 34] on giant foxtail (Setaria faberii)?
Found: 60

Lookup: Any idea what Plant response rating, Foxtail, Giant came out for Cc1cc(F)ccc1-n1c(-c2ccccc2)ncc(C(=O)C2=C(O)CCCC2=O)c1=O [Compound 48] on giant foxtail (Setaria faberii)?
Found: 70

Lookup: Any idea what Plant response rating, Foxtail, Giant came out for Cc1ccc(F)c(-n2c(-c3ccccc3)ncc(C(=O)C3=C(O)CCCC3=O)c2=O)c1 [Compound 51] on giant foxtail (Setaria faberii)?
Found: 30

Lookup: Any idea what Plant response rating, Foxtail, Giant came out for O=C1CCCC(O)=C1C(=O)c1cnc(-c2ccsc2)n(C2CCCCC2)c1=O [Compound 99] on giant foxtail (Setaria faberii)?
Found: 40

Lookup: Any idea what Plant response rating, Foxtail, Giant came out for Cc1ccc(-n2c(-c3ccccc3)ncc(C(=O)C3=C(O)CCCC3=O)c2=O)cc1C [Compound 32] on giant foxtail (Setaria faberii)?
Found: 10

Lookup: Any idea what Plant response rating, Foxtail, Giant came out for CCCn1c(-c2cc(Cl)cc(Cl)c2)ncc(C(=O)C2=C(O)CCCC2=O)c1=O [Compound 173] on giant foxtail (Setaria faberii)?
Found: 20

Lookup: Any idea what Plant response rating, Foxtail, Giant came out for COc1cccc(-c2ncc(C(=O)C3=C(O)CCCC3=O)c(=O)n2C2CCCCC2)c1 [Compound 196] on giant foxtail (Setaria faberii)?
Found: 0

Lookup: Any idea what Plant response rating, Foxtail, Giant came out for Cc1ccc(F)cc1-n1c(-c2cccc(Br)c2)ncc(C(=O)C2=C(O)CCCC2=O)c1=O [Compound 154] on giant foxtail (Setaria faberii)?
Found: 10

Lookup: Any idea what Plant response rating, Foxtail, Giant came out for CCCn1c(-c2ccc3c(c2)OCCO3)ncc(C(=O)C2=C(O)C3CCC(C3)C2=O)c1=O (stereo not drawn) [Compound 241] on giant foxtail (Setaria faberii)?
Found: 10

* * *

- Test system: morningglory (Ipomoea spp.)
- assay_details: Test A pre-/postemergence plant response
- Assay type: in vivo
- condition_description: Postemergence, 125 g ai/ha; visual injury, 0 to 100 scale (0 no effect, 100 complete control), approx. ten days
Would you kindly list Morningglory plant response rating for each of these compounds?
Output spec: single numeric token, no unit.

Lookup: Which Morningglory plant response rating is listed for O=C1CCCC(O)=C1C(=O)c1cnc(-c2ccc(Cl)cc2)n(-c2ccccc2)c1=O [Compound 25] ?
Found: 50

Lookup: Which Morningglory plant response rating is listed for Cc1cccc(-n2c(-c3ccccc3)ncc(C(=O)C3=C(O)CCCC3=O)c2=O)c1F [Compound 58] ?
Found: 80

Lookup: Which Morningglory plant response rating is listed for Cc1cccc(-n2c(-c3cccc(Cl)c3)ncc(C(=O)C3=C(O)CCCC3=O)c2=O)c1 [Compound 45] ?
Found: 80

Lookup: Which Morningglory plant response rating is listed for O=C1CCCC(O)=C1C(=O)c1cnc(-c2ccccc2)n(-c2ccc(F)cc2)c1=O [Compound 24] ?
Found: 70

Lookup: Which Morningglory plant response rating is listed for O=C1CCCC(O)=C1C(=O)c1cnc(-c2cccc(Br)c2)n(-c2ccccc2)c1=O [Compound 69] ?
Found: 100

Lookup: Which Morningglory plant response rating is listed for Cc1cc(F)ccc1-n1c(-c2ccccc2)ncc(C(=O)C2=C(O)CCCC2=O)c1=O [Compound 48] ?
Found: 90
